- tested on: Rat liver VDAC (Rattus norvegicus, UniProt Q9Z2L0)
- Construct: Rat liver VDAC was purified in accordance with a report made by Shimizu et al; from tissue; host or cells: rat liver (mitochondria)
- Sequence (Q9Z2L0 whole entry): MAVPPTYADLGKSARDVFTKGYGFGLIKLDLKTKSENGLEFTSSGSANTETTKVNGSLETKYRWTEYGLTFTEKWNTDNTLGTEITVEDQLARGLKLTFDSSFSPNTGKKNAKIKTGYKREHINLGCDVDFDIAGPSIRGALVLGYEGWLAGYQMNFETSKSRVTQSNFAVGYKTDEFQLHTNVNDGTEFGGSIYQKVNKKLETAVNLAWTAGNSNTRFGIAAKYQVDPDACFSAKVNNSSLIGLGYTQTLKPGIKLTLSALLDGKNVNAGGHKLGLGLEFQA
- assay remarks: VDAC activity: sucrose uptake into VDAC liposomes (liposomal swelling, light scatter at 520 nm)
- Format: biochemical
- recorded conditions: VDAC liposomes, 50 mM sucrose, 20 μg/ml protein or polypeptide
measurement label: Inhibition of VDAC activity (VDAC-mediated sucrose uptake)

INSERT INTO results (substance, measurement) VALUES
  ('LV89GG: L8V9 mutant of human Bcl-xL BH4 polypeptide (FIG. 13) (SNREGGVDFLSYKLSQKGYS) [reference compound]', 'did not inhibit'),
  ('FL1213GG: F12L13 mutant of human Bcl-xL BH4 polypeptide (FIG. 13) (SNRELVVDGGSYKLSQKGYS) [reference compound]', 'did not inhibit');
